For each entry below, report its cytotoxicity at 10 µM value.
# EXPERIMENT_NOTES: Toxicity liver stage against HepG2, at 10uM
# Type: cell-based
# Parameters: test concentration 10 uM, cell line HepG2-A16-CD81EGFP
# ASSAY_SETUP: human, HepG2-A16-CD81EGFP cells; read-out: INHIBITION
One number for each entry, in %.

Field: example entries. Status: answers known.
COMPOUND: CCOC(=O)C1(Cc2ccccc2-c2ccccc2OC)CCNCC1
VALUE_UNITS: %
cytotoxicity at 10 µM: -1.47

COMPOUND: CC/N=c1\nc(NCC)nc2n1C(O)(Nc1cc(Cl)ccc1Cl)CS2 (configuration not stated)
VALUE_UNITS: %
cytotoxicity at 10 µM: 51.8

COMPOUND: Cc1cccc(C(=O)N2CCC3(CC2)CC(c2ccccc2)C(=O)N3)c1 (configuration not stated)
VALUE_UNITS: %
cytotoxicity at 10 µM: 17.8

COMPOUND: Cc1cc(C2CCCN(CCc3ccc4c(c3)CCO4)C2)n[nH]1 (configuration not stated)
VALUE_UNITS: %
cytotoxicity at 10 µM: -7.66

COMPOUND: Cc1cc(C(=O)Nc2n[nH]c(C3CC3)n2)c2c(C)noc2n1
VALUE_UNITS: %
cytotoxicity at 10 µM: -1.86

COMPOUND: CCn1cc(NC(=O)N2CCN(C(=O)Oc3ccccc3)CC2)cn1
VALUE_UNITS: %
cytotoxicity at 10 µM: 1.1

COMPOUND: O=C(CCc1cn[nH]c1)N1C[C@H](CO)C[C@H](CN2CCOCC2)C1
VALUE_UNITS: %
cytotoxicity at 10 µM: 2.72

COMPOUND: CN(CC1(O)CCN(c2ccnc3ccncc23)CC1)C(=O)CCN
VALUE_UNITS: %
cytotoxicity at 10 µM: -6.86

COMPOUND: Cc1ccc(C(=O)N2CCC3(CCC(=O)N(CC(N)=O)C3)CC2)c(O)c1
VALUE_UNITS: %
cytotoxicity at 10 µM: -11.5

COMPOUND: Cc1cnn(CC(C)NCc2ccc(C#N)cc2F)c1 (configuration not stated)
VALUE_UNITS: %
cytotoxicity at 10 µM: -7.44

List the reported cytotoxicity at 10 µM of each compound below.
1. CCNc1ncc(CN2C[C@H](C3CC3)[C@@H](N)C2)cn1
2. CC(C)(C#N)C(=O)N1CCCC(c2cc(C(F)(F)F)[nH]n2)C1 (configuration not stated)

1: -40; 2: -5.67

* * *

For each entry below, report its cytotoxicity at 10 µM value.
# EXPERIMENT_NOTES: Toxicity liver stage against HepG2, at 10uM
# Type: cell-based
# Set-up: test concentration 10 uM, cell line HepG2-A16-CD81EGFP
# ASSAY_SETUP: human, HepG2-A16-CD81EGFP cells; read-out: INHIBITION
Numbers only, in %.

Field: example entries. Status: answers known.
MOLECULE: CCc1nc(CN2CCCN(c3nc4ccccc4o3)CC2)no1
VALUE_UNITS: %
cytotoxicity at 10 µM: -22.5

MOLECULE: Cc1ccccc1N1CCN(C(=O)CCc2nncn2C)C(C)C1 (configuration not stated)
VALUE_UNITS: %
cytotoxicity at 10 µM: 3.34

MOLECULE: CC(C)n1nc2c(cc1=O)CN(c1ncnc3ccsc13)CC2
VALUE_UNITS: %
cytotoxicity at 10 µM: 60.6

MOLECULE: CC(C)NC(=O)[C@@H]1C[C@H](N)CN1C(=O)C1(c2ccc(Cl)cc2)CCC1
VALUE_UNITS: %
cytotoxicity at 10 µM: 3.92

MOLECULE: CCOCc1nnc2n1CCN(Cc1c(C)noc1C)CC2
VALUE_UNITS: %
cytotoxicity at 10 µM: -95.3

List the reported cytotoxicity at 10 µM of each molecule below.
1. Fc1ccccc1-c1nccnc1C1CCCNC1 (configuration not stated)
2. O=C(c1ccco1)N1CCC2(CCCN(c3ncc(F)cn3)C2)C1 (configuration not stated)
3. CCn1cc(S(=O)(=O)NC(CO)Cc2ccccc2)cn1 (configuration not stated)
4. CNC(=O)COc1ccc(CNCc2cc(F)ccc2F)cc1
5. CN[C@@H](C)C(=O)N(Cc1cccc(C)c1)Cc1ccccc1OC
6. Cc1noc(C(C)N2CCC(c3nc4ccccc4[nH]3)CC2)n1 (configuration not stated)
7. CN(C)CCCn1ccc(-c2cccc(-c3cncnc3)c2)n1
8. CC1CCN(C(=O)c2cccc(CN3CCOCC3)c2)CC1

1. -25.7
2. -88.4
3. 6.07
4. 3.53
5. -39.5
6. -6.4
7. 2.51
8. 8.07

List the reported cytotoxicity at 10 µM of each molecule below.
1. CO[C@@H]1CCN(Cc2nccs2)C[C@@H]1Cc1cccc(C)c1
2. O=C(c1ncc[nH]1)N1CCC(Cn2cc(-c3cccc(Cl)c3)nn2)CC1
3. OC(CN(Cc1ccccc1)Cc1cscn1)c1cccs1 (configuration not stated)
4. Nc1cnn(CC(=O)N2CCCCC2)c1
5. CCC(C)(C)NC(=O)CN(C)C(c1cccc(F)c1)c1ccccn1 (configuration not stated)
6. Cc1nn(CCC(=O)NC2CCCOC2)c(C)c1C (configuration not stated)
7. CC(C)(C)C(=O)c1ccsc1NC(=O)CCNC(=O)c1ccco1

[-71.8, -12.8, 4.74, -3.15, -3.15, 2.06, -52.7]

List the reported cytotoxicity at 10 µM of each molecule below.
1. CCCNC(=O)C(C)N1CCC(C(=O)Nc2cnn(CC)c2)CC1 (configuration not stated)
2. CC(c1ccc(Cl)cc1)N1CCN(CCS(N)(=O)=O)CC1 (configuration not stated)
3. CN1C(=O)C(C)(C)COc2cc(NS(=O)(=O)Cc3ccccc3)ccc21
4. Cn1ccc(C(=O)N2CCOC3(COCCN(CC4CC4)C3)C2)n1 (configuration not stated)
5. CNC(=O)c1ccc(C(=O)N2CCCC(n3ccnc3)C2)cn1 (configuration not stated)
6. O=C(CCCN1C(=O)CCC1=O)NCC1(c2ccccc2)CCC1
7. NS(=O)(=O)N1CCc2ccc(NC(=O)Cc3ccc(F)cc3)cc21

1: -5.36; 2: -1.37; 3: -7.79; 4: 7.61; 5: -8.89; 6: -17.1; 7: -9.06

List the reported cytotoxicity at 10 µM of each molecule below.
1. COc1nn(C)cc1C(=O)N1CCC(C)CC1
2. CCC(CC)NC(=O)CN1CCSCC1
3. Cc1nc2[nH]cnc(NCCCN3CCOCC3)c-2n1
4. CCn1c(C)nnc1SCCNC(=O)c1cnc(C(C)(C)C)nc1O
5. CC(Cc1ccco1)NS(=O)(=O)N1CCCCC1 (configuration not stated)
6. Cn1ccnc1CN1CCN(Cc2ccc(C#N)cc2)CC1
7. O=C(NC1CC1)c1cc(NC(=O)N2CCCC(O)C2)ccc1Cl (configuration not stated)
8. COC[C@@]12CCO[C@@H]1CCN(C(=O)C1CCOCC1)C2

1. 5.97
2. -8.98
3. -13.3
4. -6.14
5. -0.867
6. -10.3
7. -15.5
8. -106

Hey, just so you know, these numbers are from ChEMBL document CHEMBL4513216.
